TARGET OF ASSAY: Mannose-6-phosphate isomerase (Homo sapiens) (UniProt P34949)
Sequence (P34949 whole entry, looked up): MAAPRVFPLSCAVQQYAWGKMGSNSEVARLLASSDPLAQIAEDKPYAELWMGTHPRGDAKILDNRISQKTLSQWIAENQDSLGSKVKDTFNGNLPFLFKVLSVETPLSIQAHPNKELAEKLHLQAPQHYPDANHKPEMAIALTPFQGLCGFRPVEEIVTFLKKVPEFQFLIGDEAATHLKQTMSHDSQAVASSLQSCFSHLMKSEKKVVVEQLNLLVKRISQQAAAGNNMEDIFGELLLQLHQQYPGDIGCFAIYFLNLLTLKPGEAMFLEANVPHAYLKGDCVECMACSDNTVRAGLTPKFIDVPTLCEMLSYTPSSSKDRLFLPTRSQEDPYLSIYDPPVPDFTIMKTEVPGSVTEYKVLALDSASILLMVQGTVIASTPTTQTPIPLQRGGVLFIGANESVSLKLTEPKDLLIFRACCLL
ASSAY: MPI enzyme activity enhancement – biochemical, fluorescence intensity, near-Km mannose 6-phosphate, primary screen (AID 1214)
CONDITION DESCRIPTION: purified human PMI, coupled resazurin fluorescence, 20 min; at 20 µM; stronger effect = higher value; 1 = vehicle control, 0 substrate-free wells
Hit rate of the full screen: of about 190,000 compounds, about 10 (0.005%) were called active. Not all results are given here.
Exercise: for every item that follows, state its recorded activation factor.

Lookup result for `Cc1onc(C(=O)NN)c1C(=O)N1CCN(C(c2ccccc2)c2ccccc2)CC1` ; measured activation factor: 0.9 (inactive)

activation factor measured on Cc1cccc(N(C(=O)Cc2cccs2)C(C(=O)NCc2ccco2)c2ccncc2)c1 (stereo not given) = 0.9 (inactive)

The compound identified as `N#Cc1ccccc1NC(=O)c1cccc(COc2ccc(Cl)cc2Cl)c1` registered its activation factor at 0.9 (inactive)

The reported value for `O=C1/C(=C\c2ccccc2Cl)SC(=S)N1CCC(=O)N1CCCc2ccccc21` in terms of activation factor is 0.9 (inactive)

Entry O=C(c1ccccc1)c1ccc(OCC(O)CN2CCCC2)cc1 (stereo not given) , activation factor reported as 1 (inactive)

All values here come from PubChem BioAssay AID1214.
